Attribution: PubChem BioAssay

Assay: MRP1 drug-resistance reversers in H69AR cells – cell-based, doxorubicin co-treatment, pilot screen (AID 601)
Details: H69AR cells, CellTiter-Glo, 72 h; compound alone cytotoxicity; at 10 µM
observed-property: viability
Put your answer as a value accompanied by its unit after it.

Task item: Could you tell me which viability is on file for `COc1ccccc1NC(=O)N(Cc1ccccc1)c1ccccn1` ?
Reply: 85.3%

Task item: What do we get for `CCOc1ccccc1NC(=O)CSc1nnc(Cc2cccn2C)n1-c1ccc(F)cc1` ?
Reply: 79.9%

Task item: What do we get for `CC(=O)N(C(C)=O)c1ncc2c([nH]c3ccccc32)c1C#N` ?
Reply: 61.4%

Task item: What do we get for CCN1CCN(C(CNC(=O)c2ccc3c(c2)OCO3)c2cccnc2)CC1 (stereo not drawn) ?
Reply: 99.6%

Task item: What do we get for `CCOC(=O)/C(C#N)=C(/C)c1ccc(OC)cc1` ?
Reply: 102%

Task item: What do we get for CCN1CCCC1CNC(=O)c1cc2c(=O)n(C)c3ccccc3c2n1C (stereo not drawn) ?
Reply: 87.8%

Task item: What do we get for `Cc1sc2nc(SCC(=O)NCCO)n(C)c(=O)c2c1C` ?
Reply: 88%

Task item: What do we get for `COC(=O)C1CCN(C(=O)CSc2nnc(-c3ccncc3)o2)CC1` ?
Reply: 81.8%

---

Test: viability of PTEN-null HCT116 cells – cell-based, HCT116 clonal line, CellTiter-Glo, pilot screen (AID 824);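 further: 0% = 20 µM Hyamine control and 100% = vehicle cell control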
Settings: HCT116 PTEN-deleted viability, 60 h, at 10 µM, stronger effect = lower value
Records with an inconclusive call do not appear.
Consider the following compounds; for each one, report its viability.
Reply numerically in %, unit not repeated.

Task item: Could you tell me which viability is on file for `C=CCn1c(=O)n(CCOC)c(=O)c2sc3ccccc3c21` ?
Reply: 86.7

Task item: What do we get for O=C(CN1CCN(Cc2ccccc2)CC1)NCC1COc2ccccc2O1 (stereo unspecified) ?
Reply: 96.9

Task item: What do we get for `Cn1c(=NC(=O)C2CC2)sc2cc(F)cc(F)c21` ?
Reply: 92.6

Task item: What do we get for CC1Cc2nc(SCC(=O)N3CCCc4ccccc43)n(C)c(=O)c2S1 (stereo unspecified) ?
Reply: 73.4

Task item: What do we get for CC1(C)Oc2ccc3ccc(=O)oc3c2C(N2CCCCC2)C1O (stereo unspecified) ?
Reply: 98.2

Task item: What do we get for CC(=O)OC1c2c(ccc3ccc(=O)oc23)OC(C)(C)C1OC(=O)CC(C)C (stereo unspecified) ?
Reply: 80.8

Task item: What do we get for `Clc1ccc2nc3ccccn3c2c1` ?
Reply: 106

Task item: What do we get for `CCOc1ccc(N(CC(=O)Nc2ccccc2)S(C)(=O)=O)cc1` ?
Reply: 97.4

Task item: What do we get for `Cc1cccc(-n2ncc3c(NCCc4ccc(S(N)(=O)=O)cc4)ncnc32)c1` ?
Reply: 82

Task item: What do we get for `Cn1c(=O)c2nnn(/N=C(\c3ccccc3)C3CC3)c2n(C)c1=O` ?
Reply: 98.7

Task item: What do we get for O=C1NC(=O)C(CC(=O)N(Cc2ccco2)C2(C(=O)NC3CCCCC3)CCCCC2)N1 (stereo unspecified) ?
Reply: 93.4

Task item: What do we get for `O=C(Nc1cccnc1)Nc1ccccn1` ?
Reply: 92.9

Task item: What do we get for Cc1noc(/C=C/N(C)C)c1S(=O)(=O)N1CCCC(C(=O)NCCC2=CCCCC2)C1 (stereo unspecified) ?
Reply: 72.8

Task item: What do we get for `Cc1noc(C)c1S(=O)(=O)N(CC(=O)N1CCCC1)c1ccc(C(C)C)cc1` ?
Reply: 83

Task item: What do we get for `CNC(=O)CN(c1ccc(C(C)C)cc1)S(C)(=O)=O` ?
Reply: 96.1

Task item: What do we get for `O=C(Cn1cc2c(n1)CCCCC2)N1CCc2ccccc2C1` ?
Reply: 84.7

Task item: What do we get for `O=C(Cc1cccs1)N(Cc1ccco1)C1(C(=O)NC2CCCC2)CCCCC1` ?
Reply: 67.1

Task item: What do we get for `COc1ccc(OCCNS(=O)(=O)c2ccccc2)cc1` ?
Reply: 97.2

Task item: What do we get for `Cc1c(C(=O)NC2CC2)oc2ccc(S(=O)(=O)N3CCCCCC3)cc12` ?
Reply: 90.8

Task item: What do we get for `CCN1CCN(C(=O)c2cc3c(-c4ccc(Cl)cc4)nn(C)c3s2)CC1` ?
Reply: 52.7

Task item: What do we get for `Cc1cccc(NC(=O)c2ccccc2O)c1C` ?
Reply: 86.3

Task item: What do we get for `CCOC(=O)c1sc(/N=C/N(C)C)c(C(=O)OCC)c1C` ?
Reply: 90.4

Task item: What do we get for `O=C(c1ccc(CSCc2ccccc2F)o1)N1CCN(c2ccc(N3CCOCC3)nn2)CC1` ?
Reply: 89.7

Task item: What do we get for `CN(C)c1cc(NC(=O)CN2CCOCC2)c2ccccc2n1` ?
Reply: 99.4

Task item: What do we get for `CCCCn1c(CNC(=O)CCC)nc2ccccc21` ?
Reply: 100

Task item: What do we get for `COC(=O)/C=C/S(=O)(=O)c1ccc(NC(C)=O)cc1` ?
Reply: 85.4

Task item: What do we get for `O=C(Cn1c(=O)oc2cc(S(=O)(=O)N3CCCCCC3)ccc21)NC1CCCCC1` ?
Reply: 93.8

Task item: What do we get for `CCCCn1c(CNC(C)=O)nc2ccccc21` ?
Reply: 100

Task item: What do we get for `CN(C)CCCNc1ncnc2c1cnn2-c1ccccc1` ?
Reply: 106

Task item: What do we get for `O=c1oc2c3c4c(cc2s1)CCCN4CCC3` ?
Reply: 97.1

Task item: What do we get for `O=[n+]1c2c(n([O-])c3c1CCCC3)CCCCC2` ?
Reply: 99.5

Task item: What do we get for COc1ccc(C2C(C(=O)N3CCN(c4ccccc4)CC3)c3ccccc3C(=O)N2C)cc1OC (stereo unspecified) ?
Reply: 99.3

Task item: What do we get for `Cc1nnc(SCCn2c(N(C)Cc3ccccc3)nc3c2c(=O)[nH]c(=O)n3C)s1` ?
Reply: 97.5

Task item: What do we get for `O=c1c2cnn(-c3ccccc3)c2ncn1Cc1cccc(Cl)c1` ?
Reply: 91.7

Task item: What do we get for `CCOC(=O)N1CCC(NC(=O)C2CCN(Cc3nc(-c4ccc(CC)cc4)oc3C)CC2)CC1` ?
Reply: 85.9

Task item: What do we get for `CCOc1ccccc1C(=O)Nc1cc(=O)n(C)c(=O)n1C` ?
Reply: 100

Task item: What do we get for `CCCc1cc(=O)oc2c(C)c3occ(C)c3cc12` ?
Reply: 79.5

Task item: What do we get for `CN1CCN(Cc2nc3c(c(=O)[nH]c(=O)n3C)n2CCc2ccccc2)CC1` ?
Reply: 93.5

Task item: What do we get for `Cc1cc(C)c2c(=O)n(CC(=O)N3CCC(Cc4ccccc4)CC3)sc2n1` ?
Reply: 68.7

Task item: What do we get for O=C(O)C1C2C=CC3(CN(C4CCCC4)C(=O)C13)O2 (stereo unspecified) ?
Reply: 95.5

Task item: What do we get for `O=c1c2ccccc2nc2c3ccccc3ncn12` ?
Reply: 101

Task item: What do we get for Cn1c(C(C#N)/C(=N\S(=O)(=O)c2cccs2)c2ccccc2)nc2ccccc21 (stereo unspecified) ?
Reply: 94.7

Task item: What do we get for `Cn1c(C(=O)NCCc2ccsc2)cc2c(=O)n(C)c3ccccc3c21` ?
Reply: 92.2

Task item: What do we get for `COc1ccc(S(=O)(=O)Cc2ccc(C(=O)NCCc3ccc(S(N)(=O)=O)cc3)o2)cc1` ?
Reply: 99.1

Task item: What do we get for `Cc1cccc(NC(=O)CS(=O)(=O)c2cn(C)c3ccccc23)c1` ?
Reply: 92.6

Task item: What do we get for `C=CCSc1nc2sc(C)c(C)c2c(=O)[nH]1` ?
Reply: 89

---

Assay: Her2 expression decrease, cell viability multiplex – SKBR3 breast tumor cells, AlphaScreen, ATP viability, primary screen (AID 461);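 further: percent of carrier control wells set as 100% viability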
Details: SKBR3 Her2 protein level, 18-24 h, measured here: SKBR3 viability, ATP luminescence, at 10 µM
observed-property: viability (%)
Reply numerically in %, unit not repeated.

Task item: Could you tell me which viability is on file for CCN1CCN(C(=O)C2CC(c3ccc(F)cc3)=NO2)CC1 (stereo unspecified) ?
Reply: 91.5

Task item: What do we get for CCOc1ccccc1C1C(C(=O)Nc2ccc(OC)cc2)=C(C)Nc2nc(CCCO)nn21 (stereo unspecified) ?
Reply: 87.5

Task item: What do we get for CCC(C)NC(=O)c1cc(CC(C)C)on1 (stereo unspecified) ?
Reply: 84

Task item: What do we get for O=C(Nn1cnnc1)C1Cc2ccccc2CN1S(=O)(=O)c1ccc(F)cc1 (stereo unspecified) ?
Reply: 112

Task item: What do we get for CC1=C(C(=O)OC(C)C)C(c2cccc(F)c2)n2ncnc2N1 (stereo unspecified) ?
Reply: 103

Task item: What do we get for `COc1cccc2cc(C(=O)OC3CCN(C)CC3)c(=O)oc12` ?
Reply: 96

Task item: What do we get for CC(Sc1nc(-c2ccccc2)cc(C(F)(F)F)n1)C(=O)N1CCCC1 (stereo unspecified) ?
Reply: 84.5

Task item: What do we get for CC(=O)OC1c2ccccc2C(=O)N1Cc1ccccc1Cl (stereo unspecified) ?
Reply: 93.5

Task item: What do we get for `Cc1cc(NS(=O)(=O)c2ccc(NC(=O)COc3ccccc3C(C)C)cc2)no1` ?
Reply: 98

Task item: What do we get for `Cn1cccc1Cc1nnc(SCC(=O)NCc2ccc(F)cc2)n1-c1ccc(F)cc1` ?
Reply: 94.5

Task item: What do we get for `COc1ccc(CCNC(=O)CSc2nnnn2-c2ccccc2OC)cc1OC` ?
Reply: 91
